assay: xn = mol fraction of the nth substance listed; settings: 308.15 K; 98.93 kPa; Liquid; x1 = 0.1
Readout Kind: mass density (kg/m3)

OCC(O)CO [glycerol] + O ... 1082.51
OCCCO [propan-1,3-diol] + O ... 1016.06
CCCO [propan-1-ol] + O ... 950.64
CC(O)CO (centres undefined) [1,2-propanediol] + O ... 1017.51

Measured values drawn from the NIST ThermoML archive (doi:10.1016/j.jct.2008.07.005) for this set.
